# assay.system: human STING (WT) (Homo sapiens (Human), UniProt Q86WV6, H232R)
# Sequence (Q86WV6 149-345 H232R): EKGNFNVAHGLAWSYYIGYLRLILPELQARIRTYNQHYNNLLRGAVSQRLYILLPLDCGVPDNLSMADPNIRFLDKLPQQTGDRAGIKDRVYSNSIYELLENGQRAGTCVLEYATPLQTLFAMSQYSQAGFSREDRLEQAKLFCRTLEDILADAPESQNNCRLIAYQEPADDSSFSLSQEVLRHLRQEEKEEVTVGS
# assay.method.text: Differential scanning fluorimetry (DSF), huSTING (WT)
# Format: binding
# run.parameters: compound 100 μM, 2 μM protein, Tm with ligand minus Tm of protein alone (1% DMSO)
# binning rule on DSF huSTING (WT) ΔTm: low bracket (below -1 °C), middle bracket (-1 °C to below 20 °C), high bracket (20 °C or more)

compound="NC(=O)c1ccc2c(c1)nc(-c1c(C(=O)O)sc3cccc(C(F)(F)F)c13)n2CCn1c(-c2c(C(=O)O)sc3cccc(C(F)(F)F)c23)nc2cc(C(N)=O)ccc21 (single isomer, unassigned) [Example 19.2]" discrete_label="middle bracket"
compound="NC(=O)c1ccc2c(c1)nc(-c1c(C(=O)O)sc3cccc(Cl)c13)n2CCn1c(-c2c(C(=O)O)sc3cccc(Cl)c23)nc2cc(C(N)=O)ccc21 (single isomer, unassigned) [Example 1.2]" discrete_label="low bracket"
compound="NC(=O)c1ccc2c(c1)nc(-c1c(C(=O)O)sc3c(F)ccc(Cl)c13)n2CCn1c(-c2c(C(=O)O)sc3c(F)ccc(Cl)c23)nc2cc(C(N)=O)ccc21 (single isomer, unassigned) [Example 2.2]" discrete_label="middle bracket"
compound="NC(=O)c1ccc2c(c1)nc(-c1c(C(=O)O)sc3c(F)ccc(Cl)c13)n2CCn1c(-c2c(C(=O)O)sc3c(F)ccc(Cl)c23)nc2cc(C(N)=O)ccc21 (single isomer, unassigned) [Example 2.1]" discrete_label="high bracket"
compound="NC(=O)c1ccc2c(c1)nc(-c1c(C(=O)O)sc3c(F)ccc(Br)c13)n2CCn1c(-c2c(C(=O)O)sc3c(F)ccc(Br)c23)nc2cc(C(N)=O)ccc21 (single isomer, unassigned) [Example 20.1]" discrete_label="high bracket"
compound="NC(=O)c1ccc2c(c1)nc(-c1c(C(=O)O)sc3cccc(C(F)(F)F)c13)n2CCn1c(-c2c(C(=O)O)sc3cccc(C(F)(F)F)c23)nc2cc(C(N)=O)ccc21 (single isomer, unassigned) [Example 19.1]" discrete_label="middle bracket"
compound="COc1cccc2sc(C(=O)O)c(-c3nc4cc(C(N)=O)ccc4n3CCn3c(-c4c(C(=O)O)sc5cccc(OC)c45)nc4cc(C(N)=O)ccc43)c12 (single isomer, unassigned) [Example 5.2]" discrete_label="middle bracket"
compound="COc1ccc(F)c2sc(C(=O)O)c(-c3nc4cc(C(N)=O)ccc4n3CCn3c(-c4c(C(=O)O)sc5c(F)ccc(OC)c45)nc4cc(C(N)=O)ccc43)c12 (single isomer, unassigned) [Example 13.2]" discrete_label="low bracket"
compound="NC(=O)c1ccc2c(c1)nc(-c1c(C(=O)O)sc3cccc(Br)c13)n2CCn1c(-c2c(C(=O)O)sc3cccc(Br)c23)nc2cc(C(N)=O)ccc21 (single isomer, unassigned) [Example 11.2]" discrete_label="low bracket"

====

# assay.system: human STING (WT) (Homo sapiens (Human), UniProt Q86WV6, H232R)
# assay.method.text: Surface Plasmon Resonance (SPR), STING (WT)
# run.parameters: read-out: SPR (WT) KD; biotinylated STING on streptavidin chip, 8° C.
Kd strictly less than 400 nM = met. Otherwise not met.

molecule="Cc1cccc2sc(C(=O)O)c(-c3nc4cc(C(N)=O)ccc4n3CCn3c(-c4c(C(=O)O)sc5cccc(C)c45)nc4cc(C(N)=O)ccc43)c12 (single isomer, unassigned) [Example 15.1]" discrete_label="not met"
molecule="COc1ccc(F)c2sc(C(=O)O)c(-c3nc4cc(C(N)=O)ccc4n3CCn3c(-c4c(C(=O)O)sc5c(F)ccc(OC)c45)nc4cc(C(N)=O)ccc43)c12 (single isomer, unassigned) [Example 13.2]" discrete_label="not met"
molecule="COc1cccc2sc(C(=O)O)c(-c3nc4cc(C(N)=O)ccc4n3CCn3c(-c4c(C(=O)O)sc5cccc(OC)c45)nc4cc(C(N)=O)ccc43)c12 (single isomer, unassigned) [Example 5.1]" discrete_label="not met"
molecule=CCOC(=O)c1sc2cccc(Cl)c2c1-c1nc2cc(C(N)=O)ccc2n1CCn1c(-c2c(C(=O)OCC)sc3cccc(Cl)c23)nc2cc(C(N)=O)ccc21 discrete_label="not met"
molecule="Cc1cccc2sc(C(=O)O)c(-c3nc4cc(C(N)=O)ccc4n3CCn3c(-c4c(C(=O)O)sc5cccc(C)c45)nc4cc(C(N)=O)ccc43)c12 (single isomer, unassigned) [Example 15.2]" discrete_label=met
